- Tested on: OVCAR-3 ovarian
- assay.info: NCI tumour cell line growth inhibition, 48 h
outcome.measure: TGI

Fill in: TGI of O=C(O)C1(P(=O)(O)O)CC1 is ___
> 100 µM

Fill in: TGI of COC(=O)Cn1c2c(c3c(O)cccc31)C(=O)c1ccccc1-2 is ___
> 100 µM

Fill in: TGI of COC(=O)c1ccc2c(O)c(O)ccc2c1 is ___
17 µM

Fill in: TGI of N#CC(C(=O)CCC(=O)Nc1cccc(Cl)c1)c1ccccc1 (centres undefined) is ___
> 100 µM

Fill in: TGI of O=C1OC(CCCl)(c2ccccc2)CC1CN1CCOCC1 (centres undefined) is ___
32.1 µM

Fill in: TGI of CC1(C)CC(=O)c2c(nc3ccc4ccccc4c3c2-c2ccc(NC(=O)CCCC(=O)Nc3ccc(-c4c5c(nc6ccc7ccccc7c46)CC(C)(C)CC5=O)cc3)cc2)C1 is ___
> 100 µM

Fill in: TGI of NC(=O)NN=C(CS)CS is ___
51.3 µM

Fill in: TGI of COC(=O)c1c2n(c3ccccc13)C[C@H]1OC(C)(C)O[C@@H]21 is ___
> 100 µM

Fill in: TGI of CCOC(=O)CSc1nc(-c2ccccc2)c(C#N)c(=O)[nH]1 is ___
> 100 µM

###

- Tested on: EKVX NSCLC
- assay.info: NCI tumour cell line growth inhibition, 48 h
outcome.measure: GI50

Fill in: GI50 of O=c1[nH]c2ccccc2nc1-c1c[nH]c2ccccc12 is ___
18.8 µM

Fill in: GI50 of C=C1CC[C@@H]2[C@](C)(COC(C)=O)[C@@H](O)CC[C@@]2(C)[C@@H]1COc1ccc2ccc(=O)oc2c1 is ___
> 100 µM

Fill in: GI50 of Cc1cc2c3ccc(C)[n+](C)c3ccc2n1C is ___
0.456 µM

Fill in: GI50 of O[C@H]1CO[C@H]2[C@@H]1OC[C@@H]2Oc1ccc(Nc2ccnc(Nc3ccc(O[C@H]4CO[C@H]5[C@@H]4OC[C@@H]5O)c(Cl)c3)n2)cc1Cl is ___
2.4 µM

Fill in: GI50 of Cc1c2cc[n+](CCN3CCCCC3)cc2c(C)c2c1[nH]c1ccc(O)cc12 is ___
7.83 µM

Fill in: GI50 of O=C1c2c(c3c4ccccc4[nH]c3c3ccc4ccccc4c23)C(=O)N1CCN1CCCCC1 is ___
13.4 µM

Fill in: GI50 of Cc1cc(N/N=C/c2nc(-c3ccc(Br)cc3)oc2C)c2cc(Cl)ccc2n1 is ___
> 100 µM

###

- Test system: UO-31 renal
- assay.info: NCI tumour cell line growth inhibition, 48 h
Record form. Attribute: GI50. Fill in for each entry.

Record lookup: for UO-31 renal, what GI50 belongs to c1ccc2c(c1)c(NCCCCN1CCCCC1)cc1c3ccccc3c(NCCCCN3CCCCC3)cc21 ?
28.7 µM

Record lookup: for UO-31 renal, what GI50 belongs to CC(=O)C(O)N1C(=O)C=CC1=O (stereo not given) ?
2260 µM

Record lookup: for UO-31 renal, what GI50 belongs to COc1cc2c(cc1OCCCCOc1cc3c(cc1OC)C(=O)N1CCC[C@H]1CN3)N=C[C@@H]1CCCN1C2=O ?
2.89 µM

Record lookup: for UO-31 renal, what GI50 belongs to N=C(N)c1ccc(N2CCCN(c3ccc(C(=N)N)cc3)CC2)cc1 ?
> 100 µM

Record lookup: for UO-31 renal, what GI50 belongs to CC1=C(CCC(C)N(C)Cc2ccc(OCCCN3CCCC3)cc2)C(C)(C)CCC1 (stereo not given) ?
3.2 µM

###

Record form. Attribute: TGI. Fill in for each entry.
- System: HCC-2998 colon
- assay.info: NCI tumour cell line growth inhibition, 48 h

Fill in: TGI of CC1(C)CS(=O)(=O)CC(C)(C)C(=N/N)/C1=N\N is ___
> 100 µM

Fill in: TGI of CC(=O)OC1C(O)COC(O[C@H]2CC[C@]34C[C@]35CC[C@]3(C)C([C@@]6(C)CC[C@@H](C(C)(C)O)O6)[C@@H](O)C[C@@]3(C)C5C[C@H](OC3OCC(O)C(O)C3O)[C@H]4C2(C)C)C1OC1OCC(O)C(O)C1O (stereo partly specified) is ___
> 100 µM

Fill in: TGI of O=c1[nH]c2ccccc2nc1-c1c[nH]c2ccccc12 is ___
> 100 µM

Fill in: TGI of COc1ccc2[nH]c3c(c2c1)CCn1c-3nc2ccccc2c1=O is ___
> 25 µM

Fill in: TGI of CCCCCCCCCCCC(=O)OCCOCCOCCOCCOCCOCc1ccc(OC)cc1 is ___
> 100 µM

Fill in: TGI of COc1cc(/C=C2/CCS(=O)(=O)c3ccc(C)cc3C2=O)cc(OC)c1OC is ___
> 35.7 µM

###

- System: OVCAR-4 ovarian
- assay.info: NCI tumour cell line growth inhibition, 48 h
Record form. Attribute: TGI. Fill in for each entry.

Record lookup: for OVCAR-4 ovarian, what TGI belongs to Cc1sc(Cc2ccccc2)nc1-c1ccc(N)cc1 ?
51.1 µM

Record lookup: for OVCAR-4 ovarian, what TGI belongs to COC(=O)Cn1c2c(c3c(O)cccc31)C(=O)c1ccccc1-2 ?
> 100 µM

Record lookup: for OVCAR-4 ovarian, what TGI belongs to Cc1ccc(N2C(=O)C3c4[nH]c5ccccc5c4C4CCC(C(C)(C)C)CC4C3C2=O)cc1 (centres undefined) ?
22.7 µM

Record lookup: for OVCAR-4 ovarian, what TGI belongs to C=CC(=O)N(C)[C@H]1C[C@H]2OC(C)(C1OC)n1c3ccccc3c3c4c(c5c6ccccc6n2c5c31)C(=O)NC4 (some centres undefined) ?
> 50 µM

Record lookup: for OVCAR-4 ovarian, what TGI belongs to C[Si](C)(C)OC1(C#N)C2C3CC4C2C(=O)C2C4C3C21 (centres undefined) ?
> 100 µM

Record lookup: for OVCAR-4 ovarian, what TGI belongs to COc1c2c(cc3oc(C)cc(=O)c13)OC(=N)C(C(N)=O)C2CC(=O)c1ccc(N)cc1 (centres undefined) ?
> 100 µM

Record lookup: for OVCAR-4 ovarian, what TGI belongs to COc1ccc(C(OCC2OC(n3ccc(NC(=O)c4ccccc4)nc3=O)C(O)C2O)(c2ccccc2)c2ccccc2)cc1 (centres undefined) ?
6.04 µM

Record lookup: for OVCAR-4 ovarian, what TGI belongs to COc1ccc(N=c2ssc3c(=S)ssc23)cc1 ?
> 100 µM

Record lookup: for OVCAR-4 ovarian, what TGI belongs to CC1C(O)C2(Oc3cc4c(c5c3[C@@H](CC5O)[C@H]2C)CCC2Cc3nc5c(nc3C[C@@]42C)CC2CCC3C4=C[C@H]6O[C@@]7(O[C@@](C)(CO)C[C@@H]7O)C(C)[C@@]6(O)[C@]4(C)[C@@H](O)CC3[C@]2(C)C5)OC1(C)C (some centres undefined) ?
> 3.67 µM

###

- Tested on: K-562 leukemia
- assay.info: NCI tumour cell line growth inhibition, 48 h
Record form. Attribute: GI50. Fill in for each entry.

Fill in: GI50 of CCN=C1C=CC(=C(c2ccc(N)cc2)c2ccc(N(CC)CC)c(C)c2)C=C1 is ___
259 nM

Fill in: GI50 of Cc1ccc(C2=NOC3=c4ccccc4=CSC3=C2c2ccc([N+](=O)[O-])cc2)cc1 is ___
36100 nM

Fill in: GI50 of O=C(c1ccccc1)C(CN1CCOCC1)c1ccccc1 (stereo not drawn) is ___
355 nM

###

Record form. Attribute: TGI. Fill in for each entry.
- Test system: NCI-H460 lung
- assay.info: NCI tumour cell line growth inhibition, 48 h

Record lookup: for NCI-H460 lung, what TGI belongs to CC1(CCC2C=CCC2)CCCNC1=S (stereo unspecified) ?
> 10 µM

Record lookup: for NCI-H460 lung, what TGI belongs to Nn1c(-c2ccccc2Cl)nc2ccccc2c1=O ?
> 100 µM

Record lookup: for NCI-H460 lung, what TGI belongs to O=[N+]([O-])c1cccc(-c2nc3sccn3c2-c2ccnc(NCCCNS(=O)(=O)c3cccc(F)c3)n2)c1 ?
> 100 µM

Record lookup: for NCI-H460 lung, what TGI belongs to CN1CCCCC1CCN1CCCCC1 (stereo unspecified) ?
> 100 µM

Record lookup: for NCI-H460 lung, what TGI belongs to COc1ccc(NC(=O)CC(=O)N2N=C(C)C(N=Nc3ccc(S(=O)(=O)c4ccc(N=NC5C(=O)N(C(=O)CC(=O)Nc6ccc(OC)cc6)N=C5C)cc4)cc3)C2=O)cc1 (stereo unspecified) ?
> 100 µM

Record lookup: for NCI-H460 lung, what TGI belongs to O=C1C=C(Br)c2c(-c3ccccc3)oc3cccc1c23 ?
> 100 µM
